Target: T1, Human XIAP BIR3-only (residues 241-356) with N-terminal 6x His tag (human, UniProt P98170 241-356)
T1 construct: range 241-356; Recombinant, produced in E. coli BL21(DE3); also called XIAP BIR3 protein; not shown: N-terminal 6x His tag from pET28 vector
T1 sequence (P98170 241-356): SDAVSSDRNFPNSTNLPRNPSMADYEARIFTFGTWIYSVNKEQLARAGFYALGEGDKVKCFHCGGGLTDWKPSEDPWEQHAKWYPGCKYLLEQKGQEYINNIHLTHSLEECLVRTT
Assay: fluorescence polarization, tracer binding to XIAP BIR3
Square brackets hold non-standard residues; d marks the D form. Ends that are not written are not given here. * marks the point of attachment. 5FAM = O=C1OC2(c3ccc(O)cc3Oc3cc(O)ccc32)c2ccc(C(=O)*)cc21; Abu = CC[C@H](N)C(=O)O
REPORTED_ENDPOINT: Kd (nM)
Give a bare numeral; the unit nM is implied.

Noted for [Abu]RPFK(5FAM) (Mutated Smac N-terminal peptide used as tracer in the FP assays; also called fluorescent tracer) [SM5F, fluorescently tagged mutated Smac peptide (AbuRPFK-Fam)] : its Kd reads 17.9
